Molecular target: IDO1 (Homo sapiens)
Sequence (P14902 whole entry): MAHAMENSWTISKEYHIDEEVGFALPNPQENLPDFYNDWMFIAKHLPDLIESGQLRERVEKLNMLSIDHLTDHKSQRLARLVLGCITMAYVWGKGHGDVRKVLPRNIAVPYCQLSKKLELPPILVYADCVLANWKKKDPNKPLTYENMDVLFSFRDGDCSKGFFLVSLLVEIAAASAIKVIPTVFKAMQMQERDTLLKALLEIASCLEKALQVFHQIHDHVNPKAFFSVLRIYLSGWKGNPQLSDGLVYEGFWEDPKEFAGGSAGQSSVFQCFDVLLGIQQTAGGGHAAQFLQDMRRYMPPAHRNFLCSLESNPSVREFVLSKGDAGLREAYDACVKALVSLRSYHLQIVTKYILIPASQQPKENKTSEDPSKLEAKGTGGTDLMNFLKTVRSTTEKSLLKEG
Experiment: IDO1 Cellular Assay in HeLa Cells Stimulated with IFNγ
Format: cell-based
Conditions: IFNγ 100 ng/mL, 300 uM L-tryptophan, about 48 hours incubation, fluorescence readout, read-out: IDO1 HeLa Cell Assay, IC50
Please go through the items and note down their IC50.

Q. Requested field: IC50. Item: `O=C1COc2cc3[nH]c(C4(c5ccc(NC(=O)c6cccc(Cl)c6)nc5)CCC4)nc3cc2N1`
A. 132 nM

Q. Requested field: IC50. Item: `O=C(Nc1ccc(C2(c3nc4cccc(F)c4[nH]3)CCC2)cn1)c1cccc(Cl)c1`
A. 7.21 nM

Q. Requested field: IC50. Item: `N#Cc1cccc(C(=O)Nc2ccc(C3(c4nc5ccccc5[nH]4)CCC3)nc2)c1`
A. 6.11 nM

Q. Requested field: IC50. Item: `Cc1cc(Cl)cc2nc(C3(c4ccc(NC(=O)c5cccc(Cl)c5)nc4)CCC3)[nH]c12`
A. 5.1 nM

Q. Requested field: IC50. Item: `O=C(Nc1ccc(C2(c3nc4cccc(CO)c4[nH]3)CCC2)cn1)c1cccc(Cl)c1`
A. 6.65 nM

Q. Requested field: IC50. Item: `N#Cc1cnc2nc(C3(c4ccc(NC(=O)c5cncc(F)c5)nc4)CCC3)[nH]c2c1`
A. 144 nM
